B1: Pistol ribozyme (parent)
chain: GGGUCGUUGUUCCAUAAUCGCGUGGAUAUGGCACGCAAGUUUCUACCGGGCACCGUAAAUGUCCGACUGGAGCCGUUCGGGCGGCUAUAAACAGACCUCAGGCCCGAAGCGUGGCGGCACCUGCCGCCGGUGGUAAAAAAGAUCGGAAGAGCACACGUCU

# Variants of: B1
# assayText: aptazyme ON/OFF ratio, guanine; higher = stronger switching; co-transcriptional cleavage with and without guanine
# maps each entry to its aptazyme ON/OFF ratio

Some solved entries appear below for comparison.
> print(dat)
                        variantkey  experimentalresult
1           U7C U8G U10G U11A C12U                1.37
2           U7A U8A U11C C12A C13G                1.42
3           U8A G9A U10G C12A C13G                1.15
4  U7C U8C G9C U10C U11A C12U C13U                 1.1
5       U7G U8C G9C U11C C12A C13G                1.21
6       U7A U8C G9U U11C C12U C13U                1.17
7       U7A U8A G9A U10A U11G C13A                1.17
8                U7C G9A C12U C13U                1.22

Here's the next entry for you.
Param item = U7A U8C G9U U10A U11G C12A C13G ; retrieve measured aptazyme ON/OFF ratio.
1.2
